# Target Under Test: GATA4–NKX2-5 transcriptional synergy (Mus musculus, UniProt P42582+Q08369)
# Construct: expressed in transfected cells; host or cells: COS-1
# Sequence (Q08369 whole entry): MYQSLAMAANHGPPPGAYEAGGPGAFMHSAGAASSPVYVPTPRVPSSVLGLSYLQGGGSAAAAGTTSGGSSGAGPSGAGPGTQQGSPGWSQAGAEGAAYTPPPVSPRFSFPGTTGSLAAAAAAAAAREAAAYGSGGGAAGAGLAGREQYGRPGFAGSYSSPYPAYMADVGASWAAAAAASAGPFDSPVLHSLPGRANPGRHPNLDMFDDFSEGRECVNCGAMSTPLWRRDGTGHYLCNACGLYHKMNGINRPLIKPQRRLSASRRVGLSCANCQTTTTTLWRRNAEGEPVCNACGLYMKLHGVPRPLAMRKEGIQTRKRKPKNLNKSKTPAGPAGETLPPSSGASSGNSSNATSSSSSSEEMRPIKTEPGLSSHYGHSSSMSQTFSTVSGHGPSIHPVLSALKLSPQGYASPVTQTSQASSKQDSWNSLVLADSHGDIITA
# Sequence (P42582 whole entry): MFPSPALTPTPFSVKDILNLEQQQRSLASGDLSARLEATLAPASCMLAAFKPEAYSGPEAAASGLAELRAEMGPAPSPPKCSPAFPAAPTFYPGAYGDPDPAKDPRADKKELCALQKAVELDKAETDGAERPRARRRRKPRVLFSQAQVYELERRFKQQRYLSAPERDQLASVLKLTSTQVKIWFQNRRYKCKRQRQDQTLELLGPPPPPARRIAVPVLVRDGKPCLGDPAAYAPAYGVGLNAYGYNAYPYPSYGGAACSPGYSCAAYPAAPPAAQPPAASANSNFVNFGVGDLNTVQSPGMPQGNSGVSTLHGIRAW
# Assay Summary: GATA4–NKX2-5 transcriptional synergy luciferase reporter assay (3xNKE reporter, COS-1 cells)
# Type: cell-based
# Applied Conditions: COS-1; 3 µM; luciferase reporter activity relative to control
# Procedure: To screen compounds for the GATA4–NKX2-5 interaction, we have developed a luciferase reporter assay based on their property to activate gene transcription synergistically through the NKX2-5 binding site on DNA.[28] […] Raw luciferase data were analyzed in Excel, and clear outliers were removed from triplicates by using the Grubb’s test. […] Statistical significance of luciferase reporter assay data was evaluated by randomized block analysis of variance followed by Dunnett’s post hoc test. […]
Parameter Measured: activity at 3 µM (%)

Illustrative cases are given below, each with its answer.
Compound: CCN(CC)c1ccc(NC(=O)c2c[nH]nc2-c2ccccc2)cc1 [SI89]
Target Under Test: GATA4–NKX2-5 transcriptional synergy (Mus musculus, UniProt P42582+Q08369)
Endpoint Value: 80.7
--
Compound: CCC(OC)c1ccc(OCc2c(-c3ccccc3)noc2C)cc1 (racemic) [Compound 34e]
Target Under Test: GATA4–NKX2-5 transcriptional synergy (Mus musculus, UniProt P42582+Q08369)
Endpoint Value: 79.7
--
Compound: CN(C)c1ccc(NCc2c[nH]nc2-c2ccc(F)cc2)cc1 [SI78]
Target Under Test: GATA4–NKX2-5 transcriptional synergy (Mus musculus, UniProt P42582+Q08369)
Endpoint Value: 67.2
--
Compound: CCN(CC)c1ccc(NC(=O)c2ccnn2-c2ccccc2)cc1 [SI88]
Target Under Test: GATA4–NKX2-5 transcriptional synergy (Mus musculus, UniProt P42582+Q08369)
Endpoint Value: 62.4
--
Compound: CCCn1nnc(-c2ccccc2)c1C(=O)Nc1ccc(N(CC)CC)cc1 [SI65]
Target Under Test: GATA4–NKX2-5 transcriptional synergy (Mus musculus, UniProt P42582+Q08369)
Endpoint Value: 104

1 = CCN(CC)c1ccc(NC(=O)c2c(C)noc2-c2ccccc2)cc1 [Compound 65]
2 = COc1ccc(-c2cc(N)nn2C(=O)c2c(-c3ccccc3)noc2C)cc1 [SI137]
Inquiry: Which record would sort first by descending activity at 3 µM, 1 or 2 ? // return label of chosen record
Reply text: 2

P = CCN(CC)c1ccc(NC(=O)c2cnsc2)cc1 [Compound 47s]
Q = CCN(CC)c1ccc(NCc2c[nH]nc2-c2cc(F)cc(F)c2)cc1 [SI79]
R = CCN(c1ccc(NC(=O)c2c(C)noc2-c2ccccc2)cc1)C(C)C [Compound 63]
Inquiry: Your job: order these 3 records by activity at 3 µM, ascending. Kindly provide the labels arranged according to the requested ordering.
Reply text: R, P, Q
(R: 41.6%, P: 66.9%, Q: 98.9%)

a = CCN(CC)c1ccc(/C=N/c2c(-c3ccccc3)noc2C)c(O)c1 [SI44]
b = CCN(CC)c1ccc(NC(=O)c2cc(C)oc2-c2ccccc2)cc1 [Compound 54]
Inquiry: Which record would sort first by descending activity at 3 µM, a or b ? // return label of chosen record
Reply text: a
(a: 84.8%, b: 46%)

I = CCN(CC)c1ccc(NC(=O)c2c(-c3ccsc3)noc2C)cc1 [Compound 39m]
II = CC(=O)COC(=O)c1ccc(OCc2c(-c3ccccc3)noc2C)cc1 [Compound 35d]
Inquiry: Compare I and II and name the one whose reported activity at 3 µM is smaller. // return label of chosen record
Reply text: II
(II: 51.3%, I: 87.2%)

a = CCN(c1ccc(NC(=O)c2c(-c3ccccc3)noc2C)cc1)C(C)C [Compound 4i]
b = CC[N+](O)(CC)c1ccc(NC(=O)c2c(-c3ccccc3)noc2C)cc1 [SI4]
Inquiry: Compare a and b and name the one whose reported activity at 3 µM is smaller. // return label of chosen record
Reply text: a
(a: 64.9%, b: 101%)

These measurements were taken from paper PMC7076710.
